The reader will find reported GI50 values listed item by item below.
# System: IGROV-1
# Assay procedure: NCI tumour cell line growth inhibition, 48 h
Calls of active or inactive are those of the source. No stated cut-off is given here; in the data, active = GI50 up to about 1.1 µM and inactive = higher.

CCN(CC)CCCC(C)Nc1ccnc2cc(Cl)ccc12 (stereo not given) [CHLOROQUINE PHOSPHATE]    24.5 µM (inactive)
C/C(=N\N(C)C)C(CN(C)C)C(c1ccccc1)c1c(O)c2ccccc2oc1=O (stereo not given)    > 100 µM (inactive)

Reported GI50, compound "C=C1c2nc3ccccc3n2C=C(c2ccc(Cl)cc2)N1c1ccc(OCCN2CCOCC2)cc1" : ____ 14.5 µM (inactive)

Fill in the blank: the reported GI50 of "CCOC(=O)/C=C(/N=P(c1ccccc1)(c1ccccc1)c1ccccc1)C(F)(F)F" is ____. > 10 µM (inactive)

# lookup: GI50 of "CC(C)CCn1c(=O)c2c(=O)[nH][nH]c2c2ccccc21" > 100 µM (inactive)

###

# Tested on: CAKI-1
# Assay procedure: NCI tumour cell line growth inhibition, 48 h
Active and inactive are the calls of the source. Cut-off read from the data, not from the text of the source: active = GI50 up to about 1.1 µM and inactive = higher.
The reply should be one of these categories: active, inactive

Outcome logged for "Cc1ccc(-c2cc(=O)c3cc(C)c(C)c(C(=O)O)c3o2)cc1[N+](=O)[O-]" in this assay: inactive

Hi, sorry to bother you, what did the test record for "COc1ccccc1N/C(SCc1ccccc1)=C(/C(Cl)=C(Cl)Cl)[N+](=O)[O-]" ? inactive

Test call for this molecule, please: "CCCCNC(=S)Nc1nc(C(=O)NNC(=S)Nc2ccccc2)cs1" inactive

Please share the test call associated with C=C(CC(NC(=O)c1ccc(C(CC)Cc2cnc3nc(N)nc(N)c3n2)cc1)C(=O)O)C(=O)O (stereo not given) . active

In this assay, the call recorded for "C=CCn1c(=O)c(C(=O)NC(=O)OCC)cn(C2CCCCC2)c1=O" was what? inactive

###

Measured GI50 of individual entries
# Tested on: SK-OV-3
# Assay procedure: NCI tumour cell line growth inhibition, 48 h
Calls of active or inactive are those of the source. Rule as the data show it: active = GI50 up to about 1.1 µM and inactive = higher.

FC1OC2OC1C(OCc1ccccc1)C(OCc1ccccc1)C2OCc1ccccc1 (centres undefined)    > 100 µM (inactive)

# get_value(readout='GI50', item= "c1ccc2cc(-c3cc4ccccc4s3)ccc2c1" ) 22.1 µM (inactive)

Need GI50 of "O=C(O)c1ccc(CI)cc1" , thanks. 25.4 µM (inactive)

Which value of GI50 has been reported for "C=C1C(=O)O[C@@H]2/C=C(\C)CC/C=C(\C)CC[C@@]12O" in the records? 15.6 µM (inactive)

Any idea what its GI50 is? The compound is "COC(=O)c1cc(OCc2cc(OCc3ccc(Br)cc3)cc(OCc3ccc(Br)cc3)c2)cc(OCc2cc(OCc3ccc(Br)cc3)cc(OCc3ccc(Br)cc3)c2)c1" > 100 µM (inactive)

###

# System: M14
# Assay procedure: NCI tumour cell line growth inhibition, 48 h
Active and inactive are the calls of the source. No stated cut-off is given here; in the data, active = GI50 up to about 1.1 µM and inactive = higher.
Valid outcomes are listed here; reply with one: Y for active, N for inactive

Solved entries (count: 8):
C/C(=N\Nc1nc2ccccc2s1)c1cc(C)ncn1    Y
CCCCn1c2ccccc2c2ccc3c(c21)C(=O)C=CC3=O    N
Cc1ccc([N+](=O)[O-])cc1S(=O)(=O)Nc1ccc(C2=NN(C(=O)c3ccccc3)C(c3ccccc3)C2)cc1 (stereo not given)    N
Nc1cccc2cc(Cl)cnc12    N
N#CN=C(NCc1ccccc1)NCc1ccccc1    N
CNc1cc([N+](=O)[O-])ccc1C(=O)N1CCC[C@H]1CO    N
N#Cc1c(NN)nc(NN)c(C#N)c1-c1ccccc1    N
Cc1nc2ccccc2n1CCc1nc2ccccc2s1    N

Call for entry CC(=O)O[C@H]1CCC2[C@@H]3CCC4Nc5oncc5C[C@]4(C)C3CC[C@@]21C (stereo not given in full) : N

In this assay, the call recorded for Cc1cccc(C(C)(C)C)c1NC(=O)CC1Sc2ccccc2NC1=O (stereo not given) was what? N

Hey, what did the test say about "CO[C@H]1[C@@H](O)[C@@H](O)O[C@@H](O[C@H]2CC[C@@]3(C)[C@H](CC[C@@H]4[C@@H]3[C@H](O)C[C@]3(C)[C@@H](C5=CC(=O)OC5)CC[C@]43O)C2)[C@@H]1O" ? Y

Outcome logged for NC1CC(=O)c2ccccc21 (stereo not given) in this assay: N

Each compound tested received a call. Report the one for "O=[N+]([O-])c1ccc(/C=C/c2ccc(/C=C/c3ccc([N+](=O)[O-])cc3[N+](=O)[O-])cc2)c([N+](=O)[O-])c1" . N
